SYSTEM_NAME: T1, Rb^P S534R (human, UniProt P06400 380-788, S534R)
T1 construct: also called variant 23
T1 sequence (looked up): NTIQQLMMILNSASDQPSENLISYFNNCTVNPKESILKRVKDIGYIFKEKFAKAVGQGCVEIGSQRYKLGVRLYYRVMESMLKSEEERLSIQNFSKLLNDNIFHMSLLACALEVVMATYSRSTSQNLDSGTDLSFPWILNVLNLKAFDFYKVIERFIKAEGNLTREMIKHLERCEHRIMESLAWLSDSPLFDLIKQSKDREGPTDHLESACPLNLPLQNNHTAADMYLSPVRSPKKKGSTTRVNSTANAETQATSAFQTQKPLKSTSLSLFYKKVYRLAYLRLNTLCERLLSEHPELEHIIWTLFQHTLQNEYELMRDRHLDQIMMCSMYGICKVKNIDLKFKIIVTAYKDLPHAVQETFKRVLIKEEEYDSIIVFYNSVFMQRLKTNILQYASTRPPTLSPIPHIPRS
TEST_SUMMARY: fluorescence polarisation; 37 °C, after the 25 °C reading ramped over 7 min to 37 °C and 2 min incubation; unlabeled Rb^P against 1.5 nM TMR-E2F1^TD or 7.5 nM TMR-E7^LxCxE; 25 mM Tris pH 8.0, 200 mM NaCl, 1 mM DTT, 0.1% Tween-20; apparent Kd
CONDITION_DETAILS: both partners purified
No end group written: not given here. TMR = tetramethyl rhodamine dye
Exercise: state measured Kd for each of the binders provided.
One number for each entry, in µM.

DLYCYEQLN (also: TMR label, position not given here, source: synthetic peptide, bought: GenScript) [TMR-E7^LxCxE, LxCxE peptide of the E7 oncoprotein from HPV] = 0.011

In: Dear colleague, please send me the reported Kd for {TMR}-GEGIRDLFDCDFGDLTPLD (also called E2F^TD; source: synthetic peptide, bought: GenScript) [TMR-E2F1^TD, peptide of the E2F1 transactivation domain] when you can.
Out: 18.1
